Origin of measurements: patent US11174243B2

assay: Phase 1a single-dose study in humans, Stage 1: pharmacokinetics; format: in vivo, human; settings: both sexes, human, plasma, oral; Cohort 3 (200 mg); mean (SD); read-out: AUC0-24
measure: AUC(0-t) (ng·h/mL)
// note: answer is a bare numeric in ng·h/mL

Entry NC(=O)[C@H]1CCN(c2ncnc(N)c2F)C[C@@H]1N1CCC[C@@H](Nc2cc(Cl)cc(C(F)(F)F)c2)C1=O has what AUC(0-t)?
29900

====

experiment: Phase 1a single-dose study in humans, Stage 1: pharmacokinetics; format: in vivo, human; details: both sexes, human, plasma; Cohort 1 (50 mg Compound 2, single oral); mean (SD), N 6
measure: Cmax (ng/mL)
Write the value in ng/mL as a bare number.

Dear colleague, I am looking for the recorded Cmax of the following compound: NC(=O)[C@H]1CCN(c2ncnc(N)c2F)C[C@@H]1N1CCC[C@@H](Nc2cc(Cl)cc(C(F)(F)F)c2)C1=O
1910

====

experiment: Phase 1a single-dose study in humans, Stage 1: pharmacokinetics; assay type: in vivo, human; conditions: both sexes, human, plasma, oral; Cohort 1 (50 mg); mean (SD); read-out: Tmax
measure: Tmax (h)
All answers are understood in h, so give the number only.

Param item = NC(=O)[C@H]1CCN(c2ncnc(N)c2F)C[C@@H]1N1CCC[C@@H](Nc2cc(Cl)cc(C(F)(F)F)c2)C1=O ; retrieve measured Tmax.
1.17

====

Target sequence: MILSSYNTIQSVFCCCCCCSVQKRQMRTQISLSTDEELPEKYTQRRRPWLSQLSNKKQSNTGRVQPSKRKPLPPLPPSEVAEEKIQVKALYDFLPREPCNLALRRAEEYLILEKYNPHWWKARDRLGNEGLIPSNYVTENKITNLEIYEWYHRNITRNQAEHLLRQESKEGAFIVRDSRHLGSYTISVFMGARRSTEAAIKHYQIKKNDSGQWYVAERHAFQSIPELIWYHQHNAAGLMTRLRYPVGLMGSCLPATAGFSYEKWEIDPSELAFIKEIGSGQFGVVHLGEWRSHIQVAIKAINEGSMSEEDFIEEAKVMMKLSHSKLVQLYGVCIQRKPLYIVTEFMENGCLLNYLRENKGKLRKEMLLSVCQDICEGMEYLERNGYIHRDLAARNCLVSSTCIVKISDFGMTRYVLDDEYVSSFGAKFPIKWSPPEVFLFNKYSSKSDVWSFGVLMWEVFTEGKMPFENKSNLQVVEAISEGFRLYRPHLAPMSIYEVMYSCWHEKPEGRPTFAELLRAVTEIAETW
measure: Kd

Which measured Kd value corresponds to NC(=O)[C@H]1CCN(c2ncnc(N)c2F)C[C@@H]1N1CCC[C@@H](Nc2cc(Cl)cc(C(F)(F)F)c2)C1=O [Compound 1] ?
≥ 200 nM

====

target: CYP3A4 (Homo sapiens, UniProt P08684); construct: from tissue; host or cells: human subjects in vivo; assay: Phase 1a study Stage 3: drug-drug interaction with itraconazole (effect of CYP3A4 inhibition); type: in vivo; settings: human, in vivo, 25 mg
Sequence (P08684 whole entry): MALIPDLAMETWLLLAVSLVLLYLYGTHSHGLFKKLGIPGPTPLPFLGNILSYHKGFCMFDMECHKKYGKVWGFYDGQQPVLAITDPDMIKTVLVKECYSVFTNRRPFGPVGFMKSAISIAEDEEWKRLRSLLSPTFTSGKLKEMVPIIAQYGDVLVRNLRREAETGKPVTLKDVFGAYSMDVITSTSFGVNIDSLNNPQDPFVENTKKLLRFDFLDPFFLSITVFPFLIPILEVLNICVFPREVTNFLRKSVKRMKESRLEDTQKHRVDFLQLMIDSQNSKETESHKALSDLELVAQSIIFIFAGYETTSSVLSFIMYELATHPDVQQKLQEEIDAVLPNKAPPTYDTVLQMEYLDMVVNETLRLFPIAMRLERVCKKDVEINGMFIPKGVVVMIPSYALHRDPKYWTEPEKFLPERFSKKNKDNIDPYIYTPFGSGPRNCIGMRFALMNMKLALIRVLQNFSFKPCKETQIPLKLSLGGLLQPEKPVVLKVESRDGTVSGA
measure: half-life

// query half-life value for entry NC(=O)[C@H]1CCN(c2ncnc(N)c2F)C[C@@H]1N1CCC[C@@H](Nc2cc(Cl)cc(C(F)(F)F)c2)C1=O
6.9 h

====

assay: Single-dose PK in rat; format: in vivo, male Sprague Dawley rats; details: male, Sprague Dawley, plasma, 5 mg/kg, PO, dose 5, 0.1% CMC/0.2% Tween, free base measured
measure: Tmax (h)
A number alone suffices; assume h.

Form field: reported Tmax of NC(=O)[C@H]1CCN(c2ncnc(N)c2F)C[C@@H]1N1CCC[C@@H](Nc2cc(Cl)cc(C(F)(F)F)c2)C1=O [Compound 2]
2.6
